Assay: Microsomal stability assay, human liver microsomes
Format: in vitro ADME
Details: pH 7.4, 1 μM compound, 0.5 mg/mL protein, 37° C., read-out: HLM +/− NADPH: Clint (μL/min/mg protein)
experimental_readout: microsomal CLint at 1 μM

microsomal CLint at 1 μM for CC(Oc1ccc(C(C)(C)c2cc(Cl)c(OCCCl)c(C#N)c2)cc1)c1ocnc1S(C)(=O)=O (stereo not drawn) is < 12 µL/min/mg

###

Target: androgen receptor (AR) (Homo sapiens, UniProt P10275, T878A)
Construct: LNCaP cells were transiently transfected with the PSA (6.1 kb)-luciferase reporter for 24 h; endogenous in cells; host or cells: LNCaP
Sequence (P10275 1-920 T878A): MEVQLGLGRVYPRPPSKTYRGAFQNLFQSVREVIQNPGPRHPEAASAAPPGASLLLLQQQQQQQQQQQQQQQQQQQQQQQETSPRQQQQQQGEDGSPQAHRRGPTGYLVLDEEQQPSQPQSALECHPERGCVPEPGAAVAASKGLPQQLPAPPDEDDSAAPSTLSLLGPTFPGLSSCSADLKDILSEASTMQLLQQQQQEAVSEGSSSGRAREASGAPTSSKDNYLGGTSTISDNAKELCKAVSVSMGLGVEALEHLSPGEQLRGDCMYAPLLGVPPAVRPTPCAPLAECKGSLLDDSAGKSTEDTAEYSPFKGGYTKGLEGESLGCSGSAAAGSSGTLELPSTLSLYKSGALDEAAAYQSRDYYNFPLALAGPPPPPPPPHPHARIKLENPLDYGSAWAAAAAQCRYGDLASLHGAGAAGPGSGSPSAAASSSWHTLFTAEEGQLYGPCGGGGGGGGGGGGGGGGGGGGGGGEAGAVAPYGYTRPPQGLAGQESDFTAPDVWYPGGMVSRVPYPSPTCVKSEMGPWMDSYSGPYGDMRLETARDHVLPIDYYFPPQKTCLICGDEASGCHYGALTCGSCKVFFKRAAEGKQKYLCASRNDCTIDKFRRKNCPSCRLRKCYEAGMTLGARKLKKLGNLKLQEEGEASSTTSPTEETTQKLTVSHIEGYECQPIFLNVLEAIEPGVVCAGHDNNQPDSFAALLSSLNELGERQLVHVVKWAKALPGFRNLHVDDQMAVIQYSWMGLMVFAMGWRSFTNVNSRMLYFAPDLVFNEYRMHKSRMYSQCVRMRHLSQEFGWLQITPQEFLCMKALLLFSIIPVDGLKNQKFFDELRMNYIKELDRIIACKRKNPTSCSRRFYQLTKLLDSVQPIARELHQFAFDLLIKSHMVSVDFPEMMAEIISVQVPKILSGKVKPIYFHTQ
Experiment: Androgen-induced PSA (6.1 kb)-luciferase reporter assay in LNCaP cells
Format: cell-based
Conditions: LNCaP cells transfected with PSA (6.1 kb)-luciferase reporter, R1881 1 nM, 24 h; read-out: PSA-Luc IC50 Range
pIC50: −log10 of the molar value. Where a name gives a salt, the structure may show the parent alone.
Measured pIC50 values are reported for all entries that follow.

See these solved cases before continuing.
CC(C)(c1ccc(NCc2ocnc2S(C)(=O)=O)cc1)c1cc(Cl)c(OCCCl)c(Cl)c1 [Compound A32, Hydrochloride]; < 5.70
CC(C)(c1ccc(OCc2ocnc2S(C)(=O)=O)cc1)c1cc(Cl)c(OCCCl)c(Cl)c1; 5.70 to 6.30
CC(Oc1ccc(C(C)(C)c2cc(Cl)c(OCCCl)c(Cl)c2)cc1)c1ocnc1S(C)(=O)=O (stereo not drawn); 5.70 to 6.30
CC(C)(c1ccc(OCc2ncoc2S(C)(=O)=O)cc1)c1cc(Cl)c(OCCCl)c(C#N)c1; > 6.30
CC(C)(c1ccc(OCc2cnc(NS(C)(=O)=O)cn2)cc1)c1cc(Cl)c(OCCCl)c(C#N)c1; 5.70 to 6.30

pIC50 for CC(C)(c1ccc(-n2cnc(CNS(C)(=O)=O)c2)cc1)c1cc(Cl)c(OCCCl)c(Cl)c1 is 5.70 to 6.30

pIC50 for C[C@H](Oc1ccc(C(C)(C)c2cc(Cl)c(OCCCl)c(C#N)c2)cc1)c1ccnc(NS(C)(=O)=O)n1 (single isomer, unassigned) is 5.70 to 6.30

pIC50 for CC(C)S(=O)(=O)c1ncc(COc2ccc(C(C)(C)c3cc(Cl)c(OCCCl)c(C#N)c3)cc2)o1 is > 6.30

pIC50 for CC(C)(c1ccc(OCc2nccc(NS(C)(=O)=O)n2)cc1)c1cc(Cl)c(OCCCl)c(C#N)c1 is < 5.70

pIC50 for Cc1nc(COc2ccc(C(C)(C)c3cc(Cl)c(OCCCl)c(C#N)c3)cc2)cc(NS(C)(=O)=O)n1 is 5.70 to 6.30

pIC50 for CC(C)(c1ccc(OCc2ccnc(N3CCCCS3(=O)=O)n2)cc1)c1cc(Cl)c(OCCCl)c(C#N)c1 is > 6.30

pIC50 for CC(C)(c1ccc(OCc2ocnc2S(C)(=O)=O)cc1)c1cc(Cl)c(OCCC(F)(F)F)c(Cl)c1 is 5.70 to 6.30
